Would you kindly list microsomal CLint at 1 µM for each of these compounds?
- EXPERIMENTAL PROTOCOL: Metabolic stability in rat liver microsomes assessed as intrinsic clearance at 1 uM in presence of NADPH
- Format: ADME, Microsome
- PARTICULARS: read-out: CLH
One number for each entry, in µL/min/mg.

Below, 8 compounds whose answers are already recorded.
COMPOUND: COC1(c2ccccc2)CCN(c2nnc3n2-c2ccc(Cl)cc2CC(C(N)=O)C3)CC1 (centres undefined)
MEASURED QUANTITY: microsomal CLint at 1 µM
MEASUREMENT: 7.1
//
COMPOUND: Clc1ccc2c(c1)CC1(Cc3nnc(N4CCN(c5cccc6c5CCO6)CC4)n3-2)OCCO1
MEASURED QUANTITY: microsomal CLint at 1 µM
MEASUREMENT: 28.2
//
COMPOUND: Clc1ccc2c(c1)CC1(Cc3nnc(N4CCN(c5ncccc5Cl)CC4)n3-2)OCCO1
MEASURED QUANTITY: microsomal CLint at 1 µM
MEASUREMENT: 51
//
COMPOUND: OC1Cc2cc(Cl)ccc2-n2c(nnc2N2CCN(c3cccc4c3OCC4)CC2)C1 (centres undefined)
MEASURED QUANTITY: microsomal CLint at 1 µM
MEASUREMENT: 26.2
//
COMPOUND: COC1(c2ccccc2)CCN(c2nnc3n2-c2ccc(Cl)cc2CC2(C3)OCCO2)CC1
MEASURED QUANTITY: microsomal CLint at 1 µM
MEASUREMENT: 62.2
//
COMPOUND: Cc1cccc(N2CCN(c3nnc4n3-c3ccc(Cl)cc3CC(C(N)=O)C4)CC2)c1C (centres undefined)
MEASURED QUANTITY: microsomal CLint at 1 µM
MEASUREMENT: 14.5
//
COMPOUND: Clc1ccc2c(c1)CC1(CCOCC1)Cc1nnc(N3CCN(c4cccc5c4OCC5)CC3)n1-2
MEASURED QUANTITY: microsomal CLint at 1 µM
MEASUREMENT: 48.2
//
COMPOUND: CC1(C)Cc2cccc(N3CCN(c4nnc5n4-c4ccc(Cl)cc4CC4(C5)OCCO4)CC3)c2O1
MEASURED QUANTITY: microsomal CLint at 1 µM
MEASUREMENT: 113

For the next question, use this compound.
// recorded microsomal CLint at 1 µM for Clc1ccc2c(c1)CC1(Cc3nnc(N4CCC(Oc5ccccn5)CC4)n3-2)OCCO1 : 33.3

---

Would you kindly list microsomal CLint at 1 µM for each of these compounds?
- EXPERIMENTAL PROTOCOL: Metabolic stability in rat liver microsomes assessed as intrinsic clearance at 1 uM in presence of NADPH
- Type: ADME, Microsome
- PARTICULARS: read-out: CLH
Write the numeric value and follow it with the unit.

Below, 4 compounds whose answers are already recorded.
COMPOUND: NC(=O)C1Cc2cc(Cl)ccc2-n2c(nnc2N2CCC(Oc3ccccn3)CC2)C1 (centres undefined)
MEASURED QUANTITY: microsomal CLint at 1 µM
MEASUREMENT: 7.6 µL/min/mg
//
COMPOUND: Clc1ccc2c(c1)CC1(Cc3nnc(N4CCC(N5CCCCC5)CC4)n3-2)OCCO1
MEASURED QUANTITY: microsomal CLint at 1 µM
MEASUREMENT: 1.15 µL/min/mg
//
COMPOUND: Clc1ccc2c(c1)CC1(Cc3nnc(N4CCN(c5nccc6ccsc56)CC4)n3-2)OCCO1
MEASURED QUANTITY: microsomal CLint at 1 µM
MEASUREMENT: 141 µL/min/mg
//
COMPOUND: Clc1ccc2c(c1)CC1(Cc3nnc(N4CCN(c5ccccn5)CC4)n3-2)OCCO1
MEASURED QUANTITY: microsomal CLint at 1 µM
MEASUREMENT: 25.4 µL/min/mg

# per-item lookup of microsomal CLint at 1 µM; items listed below
1. Clc1ccc2c(c1)CC1(Cc3nnc(N4CCN(c5cccc6c5COC6)CC4)n3-2)OCCO1
2. Clc1ccc2c(c1)CC1(Cc3nnc(N4CCN(c5cccc6c5OCO6)CC4)n3-2)OCCO1
3. Clc1ccc2c(c1)CC1(Cc3nnc(N4CCN(c5cccc6c5OCC6)CC4)n3-2)OCCO1
4. NC(=O)C1Cc2cc(Cl)ccc2-n2c(nnc2N2CCC(N3CCCCC3)CC2)C1 (centres undefined)

Response:
1: 29.4 µL/min/mg; 2: 31.7 µL/min/mg; 3: 36.9 µL/min/mg; 4: 0.2 µL/min/mg

# per-item lookup of microsomal CLint at 1 µM; items listed below
1. Clc1ccc2c(c1)CC1(Cc3nnc(N4CCC5(CC4)OCc4ccccc45)n3-2)OCCO1
2. Clc1ccc2c(c1)CC1(Cc3nnc(N4CCN(c5nccc6ccoc56)CC4)n3-2)OCCO1
3. NC(=O)C1Cc2cc(Cl)ccc2-n2c(nnc2N2CCN(c3cccc(Cl)c3)CC2)C1 (centres undefined)

Response:
1. 166 µL/min/mg
2. 110 µL/min/mg
3. 7 µL/min/mg

# per-item lookup of microsomal CLint at 1 µM; items listed below
1. Clc1ccc2c(c1)CC1(Cc3nnc([C@H]4CC[C@H](Oc5ccccn5)CC4)n3-2)OCCO1
2. Cc1cccc(N2CCN(c3nnc4n3-c3ccc(Cl)cc3CC3(C4)OCCO3)CC2)c1C
3. Cc1ccccc1C(=O)Nc1ccc(C(=O)N2CCCC(O)c3cc(Cl)ccc32)c(C)c1 (centres undefined)

Response:
1: 28 µL/min/mg; 2: 28 µL/min/mg; 3: 168 µL/min/mg

---

Would you kindly list pIC50 for each of these compounds?
- SYSTEM UNDER TEST: Vasopressin V1a receptor (Homo sapiens, UniProt P37288)
- Sequence (P37288 whole entry): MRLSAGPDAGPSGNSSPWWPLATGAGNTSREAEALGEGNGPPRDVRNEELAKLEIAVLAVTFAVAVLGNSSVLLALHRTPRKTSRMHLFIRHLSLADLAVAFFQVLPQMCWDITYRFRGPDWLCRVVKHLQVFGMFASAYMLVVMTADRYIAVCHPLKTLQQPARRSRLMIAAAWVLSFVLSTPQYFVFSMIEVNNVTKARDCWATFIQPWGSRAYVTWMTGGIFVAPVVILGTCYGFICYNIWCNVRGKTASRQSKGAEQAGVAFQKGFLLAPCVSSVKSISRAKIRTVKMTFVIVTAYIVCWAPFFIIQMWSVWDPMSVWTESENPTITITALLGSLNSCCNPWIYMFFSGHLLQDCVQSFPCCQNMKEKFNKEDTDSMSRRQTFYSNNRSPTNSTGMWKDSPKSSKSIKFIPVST
- EXPERIMENTAL PROTOCOL: Displacement of [3H]AVP from human vasopressin V1a receptor expressed in human 1321N1 cells
Give bare numbers, as −log10 of the molar value.

QUERY SMILES: Clc1ccc2c(c1)CC1(Cc3nnc(N4CCN(c5cccc6c5OCC6)CC4)n3-2)OCCO1
SYSTEM UNDER TEST: Vasopressin V1a receptor (Homo sapiens, UniProt P37288)
pIC50: 8.66

For the next question, use this compound.
// recorded pIC50 for Cc1cccc(N2CCN(c3nnc4n3-c3ccc(Cl)cc3CC3(C4)OCCO3)CC2)c1C : 8.24

---

- EXPERIMENTAL PROTOCOL: Apparent permeability across apical to basolateral side in vinblastine treated human Caco-2 cells incubated for 15 to 60 mins by HPLC analysis
- Format: ADME, cell-based
- PARTICULARS: time 15-60 min
Would you kindly list Papp A→B for each of these compounds?
Answers are plain numbers, in ×10⁻⁶ cm/s.

COMPOUND: Clc1ccc2c(c1)CC1(Cc3nnc(N4CCN(c5cccc6c5OCC6)CC4)n3-2)OCCO1
Papp A→B, ×10⁻⁶ cm/s: 30
//
COMPOUND: Clc1ccc2c(c1)CC1(Cc3nnc([C@H]4CC[C@H](Oc5ccccn5)CC4)n3-2)OCCO1
Papp A→B, ×10⁻⁶ cm/s: 59.3
//
COMPOUND: Clc1ccc2c(c1)CC1(Cc3nnc(N4CCC(Oc5ccccn5)CC4)n3-2)OCCO1
Papp A→B, ×10⁻⁶ cm/s: 40.4
//
COMPOUND: Clc1ccc2c(c1)CC1(Cc3nnc(N4CCN(c5ccccn5)CC4)n3-2)OCCO1
Papp A→B, ×10⁻⁶ cm/s: 39.9
//
COMPOUND: Clc1ccc2c(c1)CC1(Cc3nnc(N4CCC(N5CCCCC5)CC4)n3-2)OCCO1
Papp A→B, ×10⁻⁶ cm/s: 2.4

# per-item lookup of Papp A→B; items listed below
1. Cc1nc2c([nH]1)-c1ccccc1N(C(=O)c1ccc(NC(=O)c3ccccc3-c3ccccc3)cc1)CC2 [CONIVAPTAN]
2. Cc1ccccc1C(=O)Nc1ccc(C(=O)N2CCCC(O)c3cc(Cl)ccc32)c(C)c1 (stereo not given) [TOLVAPTAN]
3. Clc1ccc2c(c1)CC1(Cc3nnc(N4CCN(c5cccc6c5CCO6)CC4)n3-2)OCCO1
4. Clc1ccc2c(c1)CC1(Cc3nnc(N4CCN(c5cccc6c5OCO6)CC4)n3-2)OCCO1

Response:
[2.9, 46.7, 30, 31]

// recorded Papp A→B for COC1(c2ccccc2)CCN(c2nnc3n2-c2ccc(Cl)cc2CC2(C3)OCCO2)CC1 : 34

---

- EXPERIMENTAL PROTOCOL: Metabolic stability in mouse liver microsomes assessed as intrinsic clearance at 1 uM in presence of NADPH
- Format: ADME, Microsome
- PARTICULARS: read-out: CLH
Would you kindly list microsomal CLint at 1 µM for each of these compounds?
Numbers only, in µL/min/mg.

Below, 6 compounds whose answers are already recorded.
COMPOUND: Clc1ccc2c(c1)CC1(Cc3nnc(N4CCC5(CC4)OCc4ccccc45)n3-2)OCCO1
MEASUREMENT: 194
//
COMPOUND: Cc1ccccc1C(=O)Nc1ccc(C(=O)N2CCCC(O)c3cc(Cl)ccc32)c(C)c1 (stereo not drawn)
MEASUREMENT: 32
//
COMPOUND: NC(=O)C1Cc2cc(Cl)ccc2-n2c(nnc2N2CCN(c3cccc(Cl)c3)CC2)C1 (stereo not drawn)
MEASUREMENT: 9.2
//
COMPOUND: NC(=O)C1Cc2cc(Cl)ccc2-n2c(nnc2N2CCC(N3CCCCC3)CC2)C1 (stereo not drawn)
MEASUREMENT: 0.2
//
COMPOUND: NC(=O)C1Cc2cc(Cl)ccc2-n2c(nnc2N2CCC(Oc3ccccn3)CC2)C1 (stereo not drawn)
MEASUREMENT: 6.2
//
COMPOUND: Clc1ccc2c(c1)CC1(Cc3nnc([C@H]4CC[C@H](Oc5ccccn5)CC4)n3-2)OCCO1
MEASUREMENT: 25

# per-item lookup of microsomal CLint at 1 µM; items listed below
1. Clc1ccc2c(c1)CC1(Cc3nnc(N4CCN(c5cccc6c5OCC6)CC4)n3-2)OCCO1
2. Clc1ccc2c(c1)CC1(Cc3nnc(N4CCN(c5nccc6ccoc56)CC4)n3-2)OCCO1

Response:
[27.1, 44.6]
